- TARGET ENTITY: EPHB2 (UniProt P29323)
- Sequence (P29323 whole entry, looked up): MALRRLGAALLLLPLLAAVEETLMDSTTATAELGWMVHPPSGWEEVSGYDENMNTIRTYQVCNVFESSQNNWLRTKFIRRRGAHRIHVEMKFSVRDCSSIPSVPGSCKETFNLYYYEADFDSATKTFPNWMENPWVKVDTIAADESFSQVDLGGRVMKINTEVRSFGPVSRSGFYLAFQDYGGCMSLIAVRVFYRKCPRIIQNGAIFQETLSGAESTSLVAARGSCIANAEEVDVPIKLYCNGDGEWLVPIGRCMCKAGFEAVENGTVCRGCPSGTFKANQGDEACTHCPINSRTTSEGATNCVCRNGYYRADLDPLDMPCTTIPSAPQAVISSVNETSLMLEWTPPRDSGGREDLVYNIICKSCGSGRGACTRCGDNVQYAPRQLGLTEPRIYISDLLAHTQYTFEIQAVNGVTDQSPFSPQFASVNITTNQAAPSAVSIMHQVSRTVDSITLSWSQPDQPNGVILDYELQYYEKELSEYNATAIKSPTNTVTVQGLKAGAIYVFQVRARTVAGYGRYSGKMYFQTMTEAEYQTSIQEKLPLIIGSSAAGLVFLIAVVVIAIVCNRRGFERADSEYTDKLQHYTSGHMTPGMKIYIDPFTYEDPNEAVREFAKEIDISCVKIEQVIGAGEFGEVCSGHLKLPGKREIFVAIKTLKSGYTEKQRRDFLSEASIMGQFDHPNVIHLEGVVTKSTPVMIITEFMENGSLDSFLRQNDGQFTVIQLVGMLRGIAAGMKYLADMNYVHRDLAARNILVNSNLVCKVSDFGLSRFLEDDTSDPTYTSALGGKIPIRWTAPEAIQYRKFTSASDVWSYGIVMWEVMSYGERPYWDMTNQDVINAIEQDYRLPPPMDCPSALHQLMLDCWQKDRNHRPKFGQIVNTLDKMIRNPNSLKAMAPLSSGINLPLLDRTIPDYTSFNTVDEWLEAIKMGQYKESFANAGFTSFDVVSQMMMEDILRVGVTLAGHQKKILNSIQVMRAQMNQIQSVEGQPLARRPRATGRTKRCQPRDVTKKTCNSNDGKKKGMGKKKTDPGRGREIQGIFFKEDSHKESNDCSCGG
- METHOD NOTES: phosphorylation enrichment, bacterial display (enrichment ratio); higher = better substrate or ligand; peptides without Tyr show the background;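 further: 11-residue human phosphosite peptides and single-mutation variants displayed on the E. coli surface, counted by deep sequencing, each peptide's frequency after selection divided by its frequency in the unselected input library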;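 further: frequency after pTyr selection over input frequency; kinase dosed for 20-30% of maximal phosphorylation in three min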
Classify as follows. Reported phosphorylation enrichment greater than or equal to 0.5: MET. Reported phosphorylation enrichment below: NOT MET.

[
  {
    "SEQUENCE CHAIN": "HFECKYVINAI [MAOA_Y268_YF]",
    "ASSIGNED CATEGORY": "MET"
  }
]

// query Is the recorded value of phosphorylation enrichment equal to or greater than 0.5 for this sequence? LEYNEYFRDLN [HPRT1_Y198_D194E]
// result MET

// query For this sequence, is measured phosphorylation enrichment 0.5 or higher? SPFAVYRFFTF [RPGRIP1_Y826_YF]
// result MET

// query Hi, just wondering whether CTLLPYFSAPV [DGKE_Y269_R273P_YF] shows phosphorylation enrichment of 0.5 or higher.
// result MET

// query Dear colleague, could you confirm whether FQKNVYSEELR [LMNA_Y211_I210V] has phosphorylation enrichment at or above 0.5?
// result NOT MET

// query Please tell me: is the sequence SISYDYCRVPM [BST2_Y8_T4I] at or over 0.5 in terms of phosphorylation enrichment?
// result MET

// query Is it the case that LNNIIYRVERA [CUX2_Y1470] has phosphorylation enrichment reaching or exceeding 0.5?
// result MET

// query Given AKNKDYMSFIR [GNE_Y197_I200F] , state whether its phosphorylation enrichment is at least 0.5.
// result MET
